Where these numbers come from: PubChem BioAssay (EPA / NIEHS)

systemUnderTest: Signal transducer and activator of transcription 3 (Homo sapiens) (UniProt P40763)
Sequence (P40763 whole entry, looked up): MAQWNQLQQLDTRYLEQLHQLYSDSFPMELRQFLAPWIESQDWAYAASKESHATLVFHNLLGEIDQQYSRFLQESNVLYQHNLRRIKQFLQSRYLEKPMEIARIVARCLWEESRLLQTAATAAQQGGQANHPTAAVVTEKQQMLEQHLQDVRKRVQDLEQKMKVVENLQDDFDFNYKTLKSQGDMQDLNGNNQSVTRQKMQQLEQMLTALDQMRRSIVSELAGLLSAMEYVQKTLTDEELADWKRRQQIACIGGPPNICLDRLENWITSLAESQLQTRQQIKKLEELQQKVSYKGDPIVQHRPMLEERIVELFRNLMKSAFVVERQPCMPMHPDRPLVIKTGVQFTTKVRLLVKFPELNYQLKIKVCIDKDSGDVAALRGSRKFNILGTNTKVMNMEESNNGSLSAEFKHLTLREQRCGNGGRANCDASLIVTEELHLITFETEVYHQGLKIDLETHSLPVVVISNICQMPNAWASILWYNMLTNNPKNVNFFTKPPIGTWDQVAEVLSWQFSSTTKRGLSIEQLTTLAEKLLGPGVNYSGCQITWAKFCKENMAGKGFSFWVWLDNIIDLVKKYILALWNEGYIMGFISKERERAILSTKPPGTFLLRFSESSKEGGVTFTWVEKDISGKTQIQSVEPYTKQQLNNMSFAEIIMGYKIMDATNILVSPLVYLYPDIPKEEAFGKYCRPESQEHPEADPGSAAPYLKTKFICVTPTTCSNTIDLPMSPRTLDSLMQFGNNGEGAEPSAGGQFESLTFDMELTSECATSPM
assayRemarks: ATG_STAT3_CIS: Attagene CIS-FACTORIAL HepG2 Assay for human Signal Transducer and Activator of Transcription 3 (STAT3) (AID 2282963)
setupConditions: HepG2, Attagene cis-factorial STAT3 reporter transcription; actives raise or lower the signal
Calls of active or inactive are those of the source. The calls were made as follows: active = hit-call score of the fitted dose curve at least 0.9, where 1 is the maximum; inactive = score below 0.9.
Your response should consist of one outcome taken from 1 (active), 0 (inactive)

Qu. State the result this test recorded for CCOC(=O)OC1=C(c2cc(C)ccc2C)C(=O)NC12CCC(OC)CC2 (stereo not drawn) .
Ans. 0

Qu. Same question for `[F][Sn]([c]1ccccc1)([c]1ccccc1)[c]1ccccc1` please.
Ans. 1

Qu. Same question for C#CCOC(=O)/C=C(C)/C=C/CC(C)CCCC(C)C (stereo not drawn) please.
Ans. 0

Qu. Same question for `c1ccc(-c2cccc(-c3ccccc3)c2)cc1` please.
Ans. 0

Qu. Same question for `CCCCN(CCCC)C(=S)S` please.
Ans. 0

Qu. Same question for `COc1nn(C(=O)NS(=O)(=O)c2ccccc2OC(F)(F)F)c(=O)n1C` please.
Ans. 0

Qu. Same question for `CCOC(=O)c1ccccc1S(=O)(=O)NC(=O)Nc1nc(Cl)cc(OC)n1` please.
Ans. 0

Qu. Same question for `N#CS` please.
Ans. 0

Qu. Same question for `CC[N+](CC)(CC)CC` please.
Ans. 0

Qu. Same question for `O=S(=O)(C(Cl)(Cl)Cl)C(Cl)(Cl)Cl` please.
Ans. 0

Qu. Same question for `CC(=Cc1ccccc1)[N+](=O)[O-]` please.
Ans. 0

Qu. Same question for `c1csc(-c2ccc(-c3cccs3)s2)c1` please.
Ans. 0

Qu. Same question for `CCCCCCCCCCCCc1cccc(S(=O)(=O)O)c1` please.
Ans. 0

Qu. Same question for `C[CH2][Hg][S]c1ccccc1C(=O)O` please.
Ans. 0

Qu. Same question for `O=CCCl` please.
Ans. 0

Qu. Same question for `CCCCCCCCCCCCCl` please.
Ans. 0

Qu. Same question for `O=C(CCl)Nc1ccccc1` please.
Ans. 0

Qu. Same question for `C=CCOC(N)=O` please.
Ans. 0

Qu. Same question for `C=CC(=O)[O][Sn]([CH2]CCC)([CH2]CCC)[CH2]CCC` please.
Ans. 1

Qu. Same question for `O=S1(=O)OC(c2cc(Br)c(O)c(Br)c2)(c2cc(Br)c(O)c(Br)c2)c2ccccc21` please.
Ans. 0

Qu. Same question for `CCOP(=S)(OCC)Oc1ccc(Cl)cc1Cl` please.
Ans. 0

Qu. Same question for `CCC[N+](CCC)(CCC)CCC` please.
Ans. 0

Qu. Same question for `O=C(NC(=O)c1c(F)cccc1F)Nc1cc(Cl)c(Oc2ncc(C(F)(F)F)cc2Cl)c(Cl)c1` please.
Ans. 0

Qu. Same question for `C[C@H]1C(=O)O[C@@H]2CCN3CC=C(COC(=O)[C@](C)(O)[C@]1(C)O)[C@H]23` please.
Ans. 0

Qu. Same question for `N#Cc1cccnc1` please.
Ans. 0

Qu. Same question for CCCCCCCCCCCCCCC(Br)C(=O)O (stereo not drawn) please.
Ans. 0

Qu. Same question for `O=S(=O)(c1ccc(Cl)cc1)c1cc(Cl)c(Cl)cc1Cl` please.
Ans. 0

Qu. Same question for `Cc1cc(Cl)ccc1N` please.
Ans. 0

Qu. Same question for `CC(C)(C)c1cc([N+](=O)[O-])cc(C(C)(C)C)c1O` please.
Ans. 0

Qu. Same question for `OC(c1ccc(Cl)cc1)(c1ccc(Cl)cc1)c1cccnc1` please.
Ans. 0

Qu. Same question for `CCCCCCCCBr` please.
Ans. 0

Qu. Same question for `COC(=O)Nc1cccc(OC(=O)Nc2cccc(C)c2)c1` please.
Ans. 0

Qu. Same question for CC(C)C(C)(N)C#N (stereo not drawn) please.
Ans. 0

Qu. Same question for `C=CC(=O)OCC(COC(=O)C=C)(COC(=O)C=C)COC(=O)C=C` please.
Ans. 0

Qu. Same question for `Cc1cc(Cl)ccc1OCCCC(=O)O` please.
Ans. 0

Qu. Same question for `O=[N+]([O-])c1ccc(Cl)c([N+](=O)[O-])c1` please.
Ans. 1

Qu. Same question for `O=C(Nc1ccc(Br)cc1)c1cc(Br)cc(Br)c1O` please.
Ans. 0

Qu. Same question for `CC(C)CP(=S)(S)CC(C)C` please.
Ans. 0

Qu. Same question for `ClCCCCl` please.
Ans. 0

Qu. Same question for `O=C(O)COc1ccc(Cl)cc1` please.
Ans. 0

Qu. Same question for `C#C[C@]1(O)CC[C@H]2[C@@H]3CCC4=CC(=O)CC[C@]4(C)[C@H]3CC[C@@]21C` please.
Ans. 0

Qu. Same question for `Nc1c(Oc2ccccc2)cc(O)c2c1C(=O)c1ccccc1C2=O` please.
Ans. 0

Qu. Same question for `O=NN1CCOCC1` please.
Ans. 0

Qu. Same question for `Cc1cc(C(F)(C(F)(F)F)C(F)(F)F)ccc1NC(=O)c1cccc(I)c1C(=O)NC(C)(C)CS(C)(=O)=O` please.
Ans. 0

Qu. Same question for `C=CCc1ccccc1O` please.
Ans. 0

Qu. Same question for N#CCCC(Br)(C#N)CBr (stereo not drawn) please.
Ans. 0

Qu. Same question for `CNC(=O)CSP(=O)(OC)OC` please.
Ans. 0

Qu. Same question for `Clc1ccc(C(Cl)(Cl)Cl)cn1` please.
Ans. 0

Qu. Same question for `O=c1[nH]c2ccccc2n1C1CCN(CCCC(c2ccc(F)cc2)c2ccc(F)cc2)CC1` please.
Ans. 0

Qu. Same question for `O=C(NC(=O)c1c(F)cccc1F)Nc1ccc(Cl)cc1` please.
Ans. 0

Qu. Same question for `CC(C)N(C(=O)CCl)c1ccccc1` please.
Ans. 0

Qu. Same question for `COc1ccccc1N` please.
Ans. 0

Qu. Same question for `C[C@@H]1O[C@@H](O[C@H]2C[C@@H](O)[C@]3(CO)[C@H]4[C@H](O)C[C@]5(C)[C@@H](C6=CC(=O)OC6)CC[C@]5(O)[C@@H]4CC[C@]3(O)C2)[C@H](O)[C@H](O)[C@H]1O` please.
Ans. 0

---

assayRemarks: IUF_NPC2a_radial_glia_migration_72hr: Leibniz Research Institute for Environmental Medicine (IUF) 72-hour Neural Progenitor Cell Migration Assay for Radial Glia Migration (NPC2a) (AID 2284299)
The source made the active and inactive calls. How the source made its calls: active means hit-call score of the fitted dose curve at least 0.9, where 1 is the maximum; inactive means score below 0.9.
Your response should consist of one outcome taken from TRUE = active, FALSE = inactive

Qu. State the result this test recorded for `CCOCn1c(-c2ccc(Cl)cc2)c(C#N)c(Br)c1C(F)(F)F` .
Ans. TRUE

Qu. Same question for O=S1OC[C@@H]2[C@H](CO1)[C@]1(Cl)C(Cl)=C(Cl)[C@@]2(Cl)C1(Cl)Cl (some centres undefined) please.
Ans. FALSE

Qu. Same question for `Cc1ccccc1OP(=O)(Oc1ccccc1C)Oc1ccccc1C` please.
Ans. FALSE

Qu. Same question for `CC1(C)[C@H](C(=O)O[C@H](C#N)c2cccc(Oc3ccccc3)c2)[C@@H]1/C=C(\Cl)C(F)(F)F` please.
Ans. FALSE

---

assayRemarks: ATG_M_61_CIS: Attagene CIS-FACTORIAL HepG2 Assay for M61 Transcription Factor (Internal Marker) (AID 2282937)
setupConditions: HepG2 Attagene CIS-FACTORIAL M61 internal marker reporter; actives raise or lower the signal
Activity calls are given as the source filed them. The calls were made as follows: active = hit-call score of the fitted dose curve at least 0.9, where 1 is the maximum; inactive = score below 0.9.
outcomeMeasure: outcome

# annotated cases, reported outcome shown
- CN(N=O)C(N)=O: inactive
- CC(C)[N+](=O)[O-]: inactive
- O=C(NC(=O)c1c(F)cccc1F)Nc1cc(Cl)c(OC(F)(F)C(F)C(F)(F)F)cc1Cl (stereo not drawn): inactive
- N#Cc1ccccc1Cl: inactive

Qu. Which outcome is listed for `O=C(Cc1ccccc1)OCCc1ccccc1` ?
Ans. inactive

Qu. Same question for `O=C(O)COc1cc(Cl)c(Cl)cc1Cl` please.
Ans. inactive

Qu. Same question for `O=C(CCl)Nc1ccccc1` please.
Ans. inactive

Qu. Same question for `Nc1ccc(-c2ccccc2)cc1` please.
Ans. inactive

---

assayRemarks: ATG_TA_CIS: Attagene CIS-FACTORIAL HepG2 Assay for human TA Basal Promoter (AID 2282964)
setupConditions: HepG2 Attagene CIS-factorial TA basal promoter reporter; actives raise or lower the signal
Active and inactive are the calls of the source. How the source made its calls: active means hit-call score of the fitted dose curve at least 0.9, where 1 is the maximum; inactive means score below 0.9.
outcomeMeasure: outcome

# annotated cases, reported outcome shown
* Cc1ccc(OP(=O)(Oc2ccc(C)cc2C)Oc2ccc(C)cc2C)c(C)c1 | inactive
* NC(=O)c1ccc(N)nc1 | inactive
* C=CCN=C=S | inactive
* CCCCOC(=O)COC(=O)c1ccccc1C(=O)OCCCC | inactive
* Fc1cccc(Cl)c1CCl | inactive
* Oc1c(Cl)cc(Cl)cc1Cl | inactive
* CCOP(=S)(OCC)Oc1ccc(Cl)cc1Cl | inactive

Qu. Which outcome is listed for `Cc1cc(Cl)ccc1N` ?
Ans. inactive
